Tested on: Propionibacterium acnes ATCC11828 (痤疮丙酸杆菌ATCC11828)
Assay Info: Antibacterial action (MIC, FICI) against Propionibacterium acnes ATCC11828 (Table 21)
Type: cell-based
Experimental Setup: component A (XP or YS) alone
Parameter: MIC_A (ng/mL)
Please reply with the bare figure in ng/mL and do not write the unit itself.

What the record says about CCOC(=O)C1=C[C@@H](OC(CC)CC)[C@H](NC(C)=O)[C@@H](NC(CC(=O)O)C(=O)O)C1 (mixture of isomers) : MIC_A is 18

What the record says about CCOC(=O)C1=C[C@@H](O)[C@H](N)[C@@H](N)C1 [化合物14S, 乙基(3R,4R,5S)-4,5-二氨基-3-羟基环己-1-烯-1-羧酸酯] : MIC_A is 701

What the record says about CCOC(=O)C1=C[C@H](OC(CC)CC)[C@@H](NC(C)=O)[C@H](NC(CC(=O)O)C(=O)O)C1 (mixture of isomers) : MIC_A is 10

What the record says about CCOC(=O)C1=C[C@@H](OC(CC)CC)[C@@H](NC(C)=O)[C@H](NC(CC(=O)O)C(=O)O)C1 (mixture of isomers) : MIC_A is 15

What the record says about CCOC(=O)C1=C[C@@H](OC(C)C)[C@H](NC(C)=O)[C@@H](NC(CC(=O)O)C(=O)O)C1 (mixture of isomers) [化合物20P] : MIC_A is 18

What the record says about CCOC(=O)C1=C[C@@H](OC(CC)CC)[C@H](NC(C)=O)[C@@H](N)C1 : MIC_A is 633

What the record says about CCOC(=O)C1=C[C@H](OC(CC)CC)[C@@H](N)[C@H](N)C1 [化合物17S] : MIC_A is 969

What the record says about CCOC(=O)C1=C[C@@H](O)[C@H](N)[C@@H](NC(CC(=O)O)C(=O)O)C1 (mixture of isomers) [化合物14P] : MIC_A is 18

What the record says about CCOC(=O)C1=C[C@H](OC(CC)CC)[C@@H](N)[C@H](NC(CC(=O)O)C(=O)O)C1 (mixture of isomers) [化合物17P] : MIC_A is 27

Data origin, for the record: patent CN111517978A
